Form field: koff (one value per entry).
Target: T1, PACAP38 (Pituitary Adenylate Cyclase-Activating Polypeptide, 38 amino acids) (human, not fully specified; the C-terminal lysine is amidated)
T1 construct: In the HTRF and PC-12 cell assays the peptide was N-terminally or C-terminally biotinylated; unlabelled in SPR; also called human PACAP38; huPACAP (1-38)
T1 peptide: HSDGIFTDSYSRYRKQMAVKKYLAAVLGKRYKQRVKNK
Assay: SPR (ProteOn XPR36), antibody amine-coupled, peptide analyte, 1:1 Langmuir fit
Express it in s⁻¹; write the number only.

Below are worked cases with known answers.
>  <Binder>
Ab1.H (antibody, V domains shown) VH: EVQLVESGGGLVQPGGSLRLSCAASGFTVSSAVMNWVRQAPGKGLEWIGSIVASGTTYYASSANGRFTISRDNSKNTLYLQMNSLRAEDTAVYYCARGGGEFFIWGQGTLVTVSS VL: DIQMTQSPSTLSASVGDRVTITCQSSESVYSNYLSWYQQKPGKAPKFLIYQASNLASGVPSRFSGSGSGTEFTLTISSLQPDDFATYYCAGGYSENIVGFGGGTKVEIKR

>  <Assay readout>
koff

>  <U>
s⁻¹

>  <Val>
1e-05

$$$$
>  <Binder>
Ab20 (antibody, human IgG1, kappa, N297A, V domains shown, Full-length anti-PACAP antibody; rabbit/human chimeric) VH: QSVEESGGRLVTPGTPLTLTCTVSGIDLSSYYMSWVRQAPGKGLEWIGFIDTDGSAYYATWAKGRFTISKTSTTVDLKITSPTTEDTATYFCARDLDLWGPGTLVTVSS VL: AAVLTQTPSPVSAAVGGTVSISCQSSESVYSNYLAWFQQKPGQPPKFLIYEASKLASGVPSRFKGSGSGTQFTLTISDVQCDDAGTYYCAGGYSSEGVAFGGGTEVVVKR

>  <Assay readout>
koff

>  <U>
s⁻¹

>  <Val>
2.4e-05

$$$$

Consider the additional binder presented here.
Noted for Ab10 (antibody, human IgG1, kappa, N297A, V domains shown, Full-length anti-PACAP antibody; rabbit variable regions cloned onto human constant regions (rabbit/human chimeric), expressed in HEK-293) VH: QSVEESGGRLVTPGTPLTLTCTVSGIDLNSYYMTWVRQAPGKGLEWIGFIDAGGDAYYASWAKGRFTISKTSTTVDLKITSPTTEDTATYFCARDLDLWGQGTLVTVSS VL: AAVLTQTPSPVSAAVGGTVTINCQSSESVYGNYLAWFQQKPGQPPKLLIYEASKLESGVPSRFSGSGSGTQFTLTISDLQCDDAATYYCAGGDISEGVAFGGGTEVVVKR : its koff reads 2e-05

The measured values listed here are drawn from patent US20250009876A1.
